Assay: in vitro
Conditions: human
The compounds listed here are annotated with their CC50.

{"COMPOUND": "CN[C@@H]1[C@@H](O)[C@@H](O[C@@H]2[C@@H](O)[C@H](O[C@H]3O[C@H]([C@@H](C)O)[C@@H](O)[C@H](O)[C@H]3N)[C@@H](N)C[C@H]2N)OC[C@]1(C)O [Geneticin]", "CC50": "> 600 µM"}

INPUT: So what's the measured CC50 for this one? CCNCC1CCN(c2c(F)cc3c(=O)c(C(=O)O)cn(CC)c3c2F)C1 (centres unmarked) [Merafloxacin]
OUTPUT: > 100 µM

* * *

Experiment: in vitro
Conditions: African green monkey, CC50, row of SARS-CoV-2 B.1.351 (Beta)
ENDPOINT NAME: CC50 (mM)
Field format: number, assumed mM, no unit text.

INPUT: Reported CC50 for CN[C@@H]1[C@@H](O)[C@@H](O[C@@H]2[C@@H](O)[C@H](O[C@H]3O[C@H]([C@@H](C)O)[C@@H](O)[C@H](O)[C@H]3N)[C@@H](N)C[C@H]2N)OC[C@]1(C)O [Geneticin] : what is it?
OUTPUT: 3.95

* * *

System: SARS-CoV-2
Assay: Antiviral plaque assay in Vero-E6 cells
Format: cell-based
Conditions: Severe acute respiratory syndrome coronavirus 2, Vero C1008, read-out: EC50 (95% CI), SARS-CoV-2 BA.1 (Omicron), Vero-E6
ENDPOINT NAME: EC50

INPUT: Which value of EC50 has been reported for CN[C@@H]1[C@@H](O)[C@@H](O[C@@H]2[C@@H](O)[C@H](O[C@H]3O[C@H]([C@@H](C)O)[C@@H](O)[C@H](O)[C@H]3N)[C@@H](N)C[C@H]2N)OC[C@]1(C)O in the records?
OUTPUT: 25.7 µM

* * *

Tested on: SARS-CoV-2
Test: Antiviral plaque assay in Vero-E6 cells
Assay type: cell-based
Conditions: Severe acute respiratory syndrome coronavirus 2, Vero C1008, read-out: EC50 (95% CI), SARS-CoV-2 B.1.258, Vero-E6
ENDPOINT NAME: pEC50
Friendly reminder that pEC50 comes from taking -log10 of the concentration in mol/L.

INPUT: Given the compound CN[C@@H]1[C@@H](O)[C@@H](O[C@@H]2[C@@H](O)[C@H](O[C@H]3O[C@H]([C@@H](C)O)[C@@H](O)[C@H](O)[C@H]3N)[C@@H](N)C[C@H]2N)OC[C@]1(C)O [Geneticin] , what is its reported pEC50?
OUTPUT: 4.37

* * *

Test system: HCoV-229e
Assay: microbe, parasite or virus in culture
Format: cell-based
Details: Human coronavirus 229E, Huh-7, read-out: EC50 (95% CI)
ENDPOINT NAME: pEC50
The read-out pEC50 is expressed as -log10 of concentration in moles per litre.

INPUT: Which value of pEC50 has been reported for CN[C@@H]1[C@@H](O)[C@@H](O[C@@H]2[C@@H](O)[C@H](O[C@H]3O[C@H]([C@@H](C)O)[C@@H](O)[C@H](O)[C@H]3N)[C@@H](N)C[C@H]2N)OC[C@]1(C)O [Geneticin] in the records?
OUTPUT: 5.14

* * *

Assay: in vitro
Details: African green monkey, CC50, row of SARS-CoV-2 B.1.617.2 (Delta)
ENDPOINT NAME: CC50
Note: a bare number is incomplete; add the unit.

INPUT: Which CC50 value belongs to CN[C@@H]1[C@@H](O)[C@@H](O[C@@H]2[C@@H](O)[C@H](O[C@H]3O[C@H]([C@@H](C)O)[C@@H](O)[C@H](O)[C@H]3N)[C@@H](N)C[C@H]2N)OC[C@]1(C)O ?
OUTPUT: 3.95 mM
